Experiment: Toxicity in po dosed C57BL6 mouse administered via metal gavage measured daily over 14 days
Assay type: organism-based
Conditions: C57BL6, mouse, in vivo

| Compound | LD50 at 336 h |
| --- | --- |
| O=C(c1ccc([N+](=O)[O-])o1)N1CCC2(CC1)CC(Cc1nc(-c3cccnc3)no1)CCO2 (stereo unspecified) | 617 mg/kg |
